assay: Inhibition of human recombinant MIF2 tautomerase activity expressed in bacterial expression system assessed as PP conversion incubated for 10 mins by tautomerase assay
Parameter: pIC50
Lab note — pIC50 values are minus log10 of concentrations in M.

Examples with their reported pIC50 follow.
INSERT INTO results (compound_string, parameter, result) VALUES
  ('Cc1c(-c2ccc(Cl)cc2Cl)sc2[nH]c(=O)n(Cc3ccccc3)c(=O)c12', 'pIC50', 5.46),
  ('Cc1c(-c2cccc(C(F)(F)F)c2)sc(N)c1C(=O)N[C@H](C)c1cccc2ccccc12', 'pIC50', 5.38);

[Q] Looking for the measured pIC50 of `O=c1[nH]c2scc(-c3ccccc3)c2c(=O)n1Cc1ccccc1` , can you help?
[A] 4.44

[Q] Looking for the measured pIC50 of `CCCCCCCCNC(=O)c1cc(-c2ccccc2)sc1N` , can you help?
[A] 4.89

[Q] Looking for the measured pIC50 of `Cc1c(-c2ccc(Cl)cc2)sc2[nH]c(=O)n(-c3ccccc3)c(=O)c12` , can you help?
[A] 4.72

[Q] Looking for the measured pIC50 of `Cc1c(-c2cccc(C(F)(F)F)c2)sc(N)c1C(=O)NCc1cccc2ccccc12` , can you help?
[A] 5.59

[Q] Looking for the measured pIC50 of `Nc1sc(-c2ccc(Cl)cc2)cc1C(=O)NCCc1ccc(Cl)cc1` , can you help?
[A] 4.44

[Q] Looking for the measured pIC50 of `Cc1c(-c2cccc(C(F)(F)F)c2)sc(N)c1C(=O)N[C@@H](C)c1cccc2ccccc12` , can you help?
[A] 5.10
